Tested on: HepG2
assay-protocol: drug sensitivity score (DSS) for viability; higher = more toxic; extreme values may be limits of the assay
condition-summary: 72 h
property-label: drug sensitivity score

- Cc1cnc(C(=O)NCCc2ccc(S(=O)(=O)NC(=O)NC3CCCCC3)cc2)cn1 [glipizide]: 0
- COC(=O)Nc1nc2cc(C(=O)c3ccc(F)cc3)ccc2[nH]1: 7.9
- O=C1NCC2(CCN(CCc3ccccc3)CC2)O1 [fenspiride]: 0
- Cc1c(CC(C)(C)C(=O)O)n(Cc2ccc(Cl)cc2)c2ccc(F)cc12: 0
- COc1cccc(OC)c1-c1ccc(C[C@H](NC(=O)c2c(Cl)cccc2Cl)C(=O)O)cc1: 0
- CCCc1ccc(C(=O)O)cc1: 0
- C[C@]12CC[C@H](O)C[C@H]1CC[C@@H]1[C@@H]2C[C@@H](O)[C@]2(C)[C@@H](C3=CC(=O)OC3)CC[C@]12O: 12.8
- CCCN(CCC)[C@H]1CCc2cccc(O)c2C1 [8-hydroxy-DPAT]: 0
- O=C(/C=C/c1c(C(=O)O)[nH]c2cc(Cl)cc(Cl)c12)Nc1ccccc1: 0

====

System: U2OS
assay-protocol: cell viability relative to DMSO; higher = less toxic
condition-summary: 72 h; 10 nM
property-label: cell viability (%)

* O=C1C(O)=C([C@H]2CC[C@H](c3ccc(Cl)cc3)CC2)C(=O)c2ccccc21 | 98.3
* O/N=C/c1ccc(-c2ccc(O)c(F)c2)c(Cl)c1O | 97.1
* CCc1cc(/C(C)=N/OCc2ccc(C3CCCCC3)c(C(F)(F)F)c2)ccc1CN1CC(C(=O)O)C1 | 99.5
* CO[C@H]1CC[C@H](N2C(=O)CNc3ncc(-c4ccc(C(C)(C)O)nc4)nc32)CC1 | 95.6
* C[C@@H](NCCCc1cccc(C(F)(F)F)c1)c1cccc2ccccc12 | 95.8
* CC(C)=CCC[C@](C)(O)[C@@H]1CC=C(C)CC1 | 100
* OC[C@H]1O[C@@H](c2ccc(Cl)c(Cc3ccc(O[C@H]4CCOC4)cc3)c2)[C@H](O)[C@@H](O)[C@@H]1O | 92.3
* CCCCCCCCCCC(CO)CCCCCCCC (stereo unspecified) | 98
* CCCCCCCC(=O)N[C@H](CN1CCCC1)[C@H](O)c1ccc2c(c1)OCCO2 | 95.4
* CNC[C@@H]1CC[C@@H](N)[C@@H](O[C@H]2[C@H](O)[C@@H](O[C@H]3OC[C@](C)(O)[C@H](NC)[C@H]3O)[C@H](N)C[C@@H]2N)O1 | 104
* O=C1NC(c2ccccc2)(c2ccccc2)C(=O)N1COP(=O)(O)O | 98.5
* CCOC(CN1CCN(CC(C)C(=O)c2ccccc2)CC1)c1ccccc1 (stereo unspecified) | 95.8
* COc1ccc2cc1Oc1cc3c(cc1OC)CC[N+](C)(C)[C@H]3Cc1ccc(cc1)Oc1c(OC)c(OC)cc3c1[C@@H](C2)[N+](C)(C)CC3 | 99.3
* CN1CCC[C@@H]1CCSc1ccc(O)cc1 [SIB-1553A] | 101
* COc1cc(C(=O)NS(=O)(=O)c2ccccc2C)ccc1Cc1cn(C)c2ccc(NC(=O)OC3CCCC3)cc12 | 98.4
* CC(C)c1cc(CNc2nc(Nc3cc(C4CC4)[nH]n3)cc(N3CCN(C)CC3)n2)on1 | 103

====

System: Calu-3
assay-protocol: cell viability relative to DMSO; higher = less toxic
condition-summary: 72 h; 10 nM
property-label: cell viability (%)

- O=C(OCCN1CCCCC1)c1c[nH]c2ccccc12: 104
- CCc1cc(/C(C)=N/OCc2ccc(C3CCCCC3)c(C(F)(F)F)c2)ccc1CN1CC(C(=O)O)C1: 99.7
- CCC(=O)O[C@]1(C(=O)COC(C)=O)CC[C@H]2[C@@H]3C[C@H](C)C4=CC(=O)C=C[C@]4(C)[C@H]3[C@@H](O)C[C@@]21C [methylprednisolone-aceponate]: 91.6
- Cc1cc(C)c2nc(-c3ccccn3)cc(C(=O)Nc3ccc(S(=O)(=O)Nc4onc(C)c4C)cc3)c2c1: 93.5
- Cn1c(N2CCCCS2(=O)=O)nc(C(=O)NCc2ccc(F)cc2)c(O)c1=O: 89.8
- O=C(O)CCC(=O)OC[C@@H](NC(=O)C(Cl)Cl)[C@H](O)c1ccc([N+](=O)[O-])cc1 [chloramphenicol-sodium-succinate]: 97.1
- CNC(=O)c1ccc2c(c1)S(=O)(=O)c1ccccc1C2=O [BW-616U]: 104
- O=C(O)C(=O)Nc1cccc(-c2nnn[nH]2)c1: 107
- O=C(O)[C@H](O)[C@@H](O)[C@H](O[C@@H]1O[C@H](CO)[C@H](O)[C@H](O)[C@H]1O)[C@H](O)CO: 106
- CCOC(=O)C1=C(N)Oc2ccc(Br)cc2C1C(C#N)C(=O)OCC (configuration not stated): 105
- C/N=C(/NC#N)NCCSCc1csc(NC(=N)N)n1: 97.2
- O=C(/C=C/c1c(C(=O)O)[nH]c2cc(Cl)cc(Cl)c12)Nc1ccccc1: 98.8
- CCCCCCCCCCCCCCCCCCCCCCO: 97.6
- CC(C)N1Cc2cc(S(C)(=O)=O)ccc2N(CCN2CC=C(c3c[nH]c4cc(F)ccc34)CC2)S1(=O)=O: 99.3
- C[C@H]1O[C@@H](n2cc(F)c(=O)[nH]c2=O)[C@H](O)[C@@H]1O: 116
- C=C[C@]1(C)CC[C@@H](C(=C)C)C[C@H]1C(=C)C: 98.4
- N#Cc1cc(NC(=O)C(=O)O)c(Cl)c(NC(=O)C(=O)O)c1 [lodoxamide]: 100

====

System: Caco-2
assay-protocol: cell viability relative to DMSO; higher = less toxic
condition-summary: 72 h; 100 nM
This listing pairs compounds with measured cell viability.
property-label: cell viability (%)

• O=C(O)CNC(=O)c1ccccc1I = 93.1
• CN1CCc2cc3c(cc2[C@H]1[C@@H]1OC(=O)c2c1ccc1c2OCO1)OCO3 [bicuculline-(+)] = 96.4
• NC(=O)c1cccc(-c2cc(Nc3ccc(OC(F)(F)F)cc3)ncn2)c1 = 104
• COc1ccc([C@@H]2CC(=O)c3c(O)cc(O[C@@H]4O[C@H](CO[C@@H]5O[C@@H](C)[C@H](O)[C@@H](O)[C@H]5O)[C@@H](O)[C@H](O)[C@H]4O)cc3O2)cc1O = 97.5
• COC(=O)Nc1nc2cc(C(=O)c3ccc(F)cc3)ccc2[nH]1 = 101

====

Test system: Caco-2
assay-protocol: drug sensitivity score (DSS) for viability; higher = more toxic; extreme values may be limits of the assay
condition-summary: 72 h
This listing pairs molecules with measured drug sensitivity score.
property-label: drug sensitivity score

• CCc1cc(Cl)c(OC)c(C(=O)NC[C@@H]2CCCN2CC)c1O [eticlopride] = 0.1
• CCN(CC)C(=O)N1CCN(C)CC1 = 0
• Cc1nc(-c2cccnc2)sc1C(=O)Nc1ccccc1-c1cn2c(CN3CCOCC3)csc2n1 = 0
• O=C(CC(c1ccccc1)c1ccccc1)N1CCN(C(c2ccccc2)c2ccccc2)CC1 = 2.6
• CC(C)NC[C@@H](O)COc1ccc(CC(N)=O)cc1 (racemic) [atenolol-(+/-)] = 0.25
• COC(=O)c1ccc(N2CCN(C)CC2)c(NC(=O)c2cccc(OC)c2)c1 = 0
• CC(C)N1Cc2cc(S(C)(=O)=O)ccc2N(CCN2CC=C(c3c[nH]c4cc(F)ccc34)CC2)S1(=O)=O = 0
• COc1cc(C(=O)NS(=O)(=O)c2ccccc2C)ccc1Cc1cn(C)c2ccc(NC(=O)OC3CCCC3)cc12 = 0
• O=C(O)c1cc2cccc([N+](=O)[O-])c2[nH]1 = 0

====

Test system: U2OS
assay-protocol: cell viability relative to DMSO; higher = less toxic
condition-summary: 72 h; 1000 nM
This listing pairs molecules with measured cell viability.
property-label: cell viability (%)

* OC[C@H]1O[C@@H](c2ccc(F)c(Cc3cc4ccccc4s3)c2)[C@H](O)[C@@H](O)[C@@H]1O | 104
* CC(C)(S)C(N)C(=O)O (stereo in doubt) [penicillamine-(racemic)] | 98.5
* C=C1c2cccc(O)c2C(=O)C2=C(O)[C@]3(O)C(=O)C(C(N)=O)=C(O)[C@@H](N(C)C)[C@@H]3[C@@H](O)[C@H]12 | 99.9
* c1cc2c(cc1[C@H]1OC[C@H]3[C@@H]1CO[C@@H]3c1ccc3c(c1)OCO3)OCO2 | 104

====

Test system: U2OS
assay-protocol: cell viability relative to DMSO; higher = less toxic
condition-summary: 72 h; 100 nM
This listing pairs molecules with measured cell viability.
property-label: cell viability (%)

• NCC(=O)N[C@@H](CCC(N)=O)C(=O)O [gly-gln] = 96.7
• O=C(O)c1cc([N+](=O)[O-])ccc1NCCCc1ccccc1 [NPPB] = 100
• S=C(NC1CCCCC1)N1CCC(c2cnc[nH]2)CC1 [thioperamide] = 98.7
• CSc1ccc(C(=O)c2[nH]c(=O)[nH]c2C)cc1 [enoximone] = 101
• CC(C)C(N)C(=O)O (stereo in doubt) [L-valine] = 98.1
• Cc1cc(C)cc(NC(=O)Nc2ccc(OS(N)(=O)=O)cc2)c1 [S4] = 100
• N#CC(Cc1ccc(O)cc1)c1ccc(O)cc1 (centres undefined) [diarylpropionitrile] = 98.7
• CC(C)c1cc(CNc2nc(Nc3cc(C4CC4)[nH]n3)cc(N3CCN(C)CC3)n2)on1 [XL228] = 84.8
• O=C(O)CCC(=O)OC[C@@H](NC(=O)C(Cl)Cl)[C@H](O)c1ccc([N+](=O)[O-])cc1 [chloramphenicol-sodium-succinate] = 98.1
• O=C(OCCN1CCCCC1)c1c[nH]c2ccccc12 = 97.6
• C=CCNc1ncnc2ccc(Br)cc12 [SMER-28] = 102
• CC[C@H](NC(=O)c1c(O)c(-c2ccccc2)nc2ccccc12)c1ccccc1 [talnetant] = 104
• O=C1OC(CN2CCOCC2)CN1/N=C/c1ccc([N+](=O)[O-])o1 (centres undefined) [furaltadone] = 95.4
• CC(C)c1ccccc1Cc1cc(C(=O)Nc2ccc(S(=O)(=O)c3ccccc3C(C)(C)C)cc2)c(O)c(O)c1O [TW-37] = 95.7
• CCOC(CN1CCN(CC(C)C(=O)c2ccccc2)CC1)c1ccccc1 (centres undefined) [eprazinone] = 95.8
• CCCCCS(=O)(=O)CCCCCCCCCCn1c(-c2ccc(O)cc2)c(C)c2cc(O)ccc21 = 100
• CCOc1ccc(-c2ccc(Cn3c(CC(C)(C)C(=O)O)c(SC(C)(C)C)c4cc(OCc5ccc(C)cn5)ccc43)cc2)cn1 = 96.6
• O=C(NC(NC(=S)Nc1ccc(F)c([N+](=O)[O-])c1)C(Cl)(Cl)Cl)C(c1ccccc1)c1ccccc1 (centres undefined) [CGK-733] = 96.4
• CCCc1ccc(C(=O)O)cc1 [4-propylbenzoic-acid] = 99.8
